- tested_system: MKNK1 (Homo sapiens, UniProt Q9BUB5, T385D)
- Construct: GST (N); purchased Carna Biosciences 02-145; host or cells: insect cells (baculovirus expression system)
- Sequence (Q9BUB5 1-424 isoform Q9BUB5-2 T344D): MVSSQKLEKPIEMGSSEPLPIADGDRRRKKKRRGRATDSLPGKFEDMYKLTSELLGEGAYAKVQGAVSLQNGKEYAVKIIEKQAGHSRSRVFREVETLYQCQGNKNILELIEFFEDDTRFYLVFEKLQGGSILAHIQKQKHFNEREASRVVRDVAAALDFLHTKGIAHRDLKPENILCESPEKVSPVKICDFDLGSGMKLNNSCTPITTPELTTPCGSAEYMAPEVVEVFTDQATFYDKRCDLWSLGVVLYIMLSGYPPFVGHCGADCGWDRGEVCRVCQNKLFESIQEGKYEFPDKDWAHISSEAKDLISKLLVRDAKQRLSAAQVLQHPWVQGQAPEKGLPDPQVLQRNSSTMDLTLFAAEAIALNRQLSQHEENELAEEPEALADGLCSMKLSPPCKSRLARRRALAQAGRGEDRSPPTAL
- assay_explanation: MKNK1 kinase high ATP assay (TR-FRET-based)
- Format: biochemical
- details: Table 2b; 2 mM ATP, 15 min preincubation
quantity_name: IC50 (nM)

// below: answered compounds
# compound, IC50 (nM)
rows = [
    ("C[C@H](N)COc1ccc2ncc(-c3cc4c(N5CCOC(C)(C)C5)cccc4o3)n2n1 [II-61]", 66.2),
    ("C[C@@H]1COCCN1c1cccc2oc(-c3cnc4ccc(OC[C@H]5CCC(=O)N5)nn34)cc12 [II-49]", 11.9),
    ("CCN(CCOC)c1cccc2oc(-c3cnc4ccc(OC[C@H](C)N)nn34)cc12 [II-24]", 3.2),
    ("CCN(CCOC)c1cccc2oc(-c3cnc4ccc(OC[C@H]5CCC(=O)N5)nn34)cc12 [II-17]", 0.5),
    ("C[C@H](N)COc1ccc2ncc(-c3cc4c(N5CCOC[C@H]5C)cccc4o3)n2n1 [II-57]", 75.1),
]

[A] C[C@@H]1CN(c2cccc3oc(-c4cnc5ccc(OC[C@@H](C)N)nn45)cc23)CCO1 [II-69]
[B] C[C@H]1CN(c2cccc3oc(-c4cnc5ccc(OC[C@H]6CCC(=O)N6)nn45)cc23)CCN1 [II-53]
Req: Could you tell me which of these two has the smaller IC50 figure? First: A Second: B Field: selected label. Fill in the label of the entry you choose.
Resp: B

----------
- tested_system: MKNK1 (Homo sapiens, UniProt Q9BUB5, T385D)
- Construct: GST (N); purchased Carna Biosciences 02-145; host or cells: insect cells (baculovirus expression system)
- assay_explanation: MKNK1 kinase high ATP assay (TR-FRET-based)
- Format: biochemical
- details: Table 2b; 2 mM ATP, 15 min preincubation
pIC50: −log10 of the molar value.
quantity_name: pIC50

# structure, pIC50
data = [
    ("COC[C@H]1CCCN1c1cccc2oc(-c3cnc4ccc(OC[C@H]5CNCCO5)nn34)cc12", 8.38),
    ("C[C@@H]1CN(c2cccc3oc(-c4cnc5ccc(OC[C@@H]6CCC(=O)N6)nn45)cc23)CCO1", 7.48),
    ("C[C@H]1CNCCN1c1cccc2oc(-c3cnc4ccc(OCC(F)(F)F)nn34)cc12", 8.57),
    ("C[C@H]1CN(c2cccc3oc(-c4cnc5ccc(OC[C@H]6CCC(=O)N6)nn45)cc23)CCO1", 8.24),
    ("COC[C@H]1CCCN1c1cccc2oc(-c3cnc4ccc(OC[C@@H]5CNCC(=O)N5)nn34)cc12", 9.10),
    ("C[C@H]1CNCCN1c1cccc2oc(-c3cnc4ccc(OCCCS(C)(=O)=O)nn34)cc12", 8.85),
]

[a] C[C@H](N)COc1ccc2ncc(-c3cc4c(N5CCO[C@@H](C)C5)cccc4o3)n2n1
[b] C[C@@H]1CN(c2cccc3oc(-c4cnc5ccc(OC[C@H]6CCC(=O)N6)nn45)cc23)CCO1
Req: Field: lower recorded pIC50 (choose a or b ) Let me know the label of the one you choose.
Resp: a
(a: 7.25, b: 8.21)

[1] COC[C@H]1CCCN1c1cccc2oc(-c3cnc4ccc(OC[C@H]5CCC(=O)N5)nn34)cc12
[2] C[C@H]1CN(c2cccc3oc(-c4cnc5ccc(OCC(F)(F)F)nn45)cc23)CCN1
Req: Which entry shows the lesser value of pIC50 here, 1 or 2 ? # answer = label of selected item
Resp: 2

[A] COc1ccc2ncc(-c3cc4c(N5CCN(c6ccccc6)CC5)cccc4o3)n2n1
[B] CN1CCN(c2cccc3oc(-c4cnc5ccc(OC[C@H]6CCC(=O)N6)nn45)cc23)CC1
[C] CC(C)(C)OC(=O)N[C@H]1C[C@H](Oc2ccc3ncc(-c4cc5c(N6CCOCC6)cccc5o4)n3n2)C1
[D] COC[C@H]1CCCN1c1cccc2oc(-c3cnc4ccc(OC[C@@H](C)N)nn34)cc12
Req: Arrange the 4 compounds by rising pIC50, starting with the smallest. Please list the labels in the order you were asked to rank them.
Resp: A, C, D, B
(A: 6.37, C: 6.71, D: 9.10, B: 9.40)

[P] N[C@H]1C[C@H](Oc2ccc3ncc(-c4cc5c(N6CCOCC6)cccc5o4)n3n2)C1
[Q] CS(=O)(=O)CCCOc1ccc2ncc(-c3cc4c(N5CCN(c6ccccc6)CC5)cccc4o3)n2n1
Req: # compare pIC50 for P vs Q ; return the one with the smaller value Please identify the chosen entry by its label.
Resp: Q
(Q: 7.17, P: 7.55)

----------
- tested_system: MKNK1 (Homo sapiens, UniProt Q9BUB5, T385D)
- Construct: GST (N); purchased Carna Biosciences 02-145; host or cells: insect cells (baculovirus expression system)
- assay_explanation: MKNK1 kinase high ATP assay (TR-FRET-based)
- Type: biochemical
- details: Table 2a; 2 mM ATP, 15 min preincubation
pIC50: −log10 of the molar value.
quantity_name: pIC50

# compound, pIC50
data = [
    ("O=C(Cc1ccccc1)NCCOc1ccc2ncc(-c3cc4ccccc4o3)n2n1", 7.75),
]

[I] O=C1CCCN1CCCOc1ccc2ncc(-c3cc4ccccc4o3)n2n1
[II] O=C(C1CCC1)N1CCC[C@H]1CCOc1ccc2ncc(-c3cc4ccccc4o3)n2n1
[III] O=C(NCCOc1ccc2ncc(-c3cc4ccccc4o3)n2n1)c1ccccn1
Req: Please order the records by their reported pIC50, lowest number first. Answer format: the labels, ordered as requested.
Resp: III, I, II
(III: 7.34, I: 7.73, II: 8.43)

----------
- tested_system: MKNK1 (Homo sapiens, UniProt Q9BUB5, T385D)
- Construct: GST (N); purchased Carna Biosciences 02-145; host or cells: insect cells (baculovirus expression system)
- assay_explanation: MKNK1 kinase high ATP assay (TR-FRET-based)
- Type: biochemical
- details: Table 2c; 2 mM ATP, 15 min preincubation
pIC50: −log10 of the molar value.
quantity_name: pIC50

Take a look at these entries with their results.
# compound, pIC50
data = [
    ("O=C1CNC[C@H](COc2ccc3ncc(-c4cc5c(N6CCOCC6)nccc5o4)n3n2)N1 [III-89]", 8.10),
    ("CN(C)[C@@H]1CCN(c2nccc3oc(-c4cnc5ccc(OC[C@H]6CCC(=O)N6)nn45)cc23)C1 [III-64]", 10.00),
    ("C[C@@H]1COCCN1c1nccc2oc(-c3cnc4ccc(OC[C@H]5CCC(=O)N5)nn34)cc12 [III-79]", 9.15),
    ("CCN(CCOC)c1nccc2oc(-c3cnc4ccc(OC[C@@H](C)N)nn34)cc12 [III-4]", 9.40),
    ("CC1(C)CN(c2nccc3oc(-c4cnc5ccc(O[C@H]6C[C@H](N)C6)nn45)cc23)CCO1 [III-129]", 7.85),
    ("CS(=O)(=O)CCCOc1ccc2ncc(-c3cc4c(N5CCCCC5)nccc4o3)n2n1 [III-45]", 8.09),
    ("N[C@H]1C[C@H](Oc2ccc3ncc(-c4cc5c(N6CCOCC6)nccc5o4)n3n2)C1 [III-95]", 8.11),
    ("COC[C@H]1CCCN1c1nccc2oc(-c3cnc4ccc(OC[C@@H]5COCCN5)nn34)cc12 [III-37]", 7.95),
]

[P] COC[C@H]1CCCN1c1nccc2oc(-c3cnc4ccc(OC[C@H]5CCC(=O)N5)nn34)cc12 [III-78]
[Q] C[C@H](N)COc1ccc2ncc(-c3cc4c(N5CCOC[C@H]5C)nccc4o3)n2n1 [III-25]
Req: // compare measured pIC50 between P and Q ; output the lower one Refer to your chosen item by its label in the answer.
Resp: Q

[I] CCN(CCOC)c1nccc2oc(-c3cnc4ccc(OC[C@@H]5CNCC(=O)N5)nn34)cc12 [III-113]
[II] CN(CCCN1CCCC1)c1nccc2oc(-c3cnc4ccc(OCCCS(C)(=O)=O)nn34)cc12 [III-47]
Req: Lower value of pIC50 belongs to which: I or II ? Indicate your choice by writing its label.
Resp: II
(II: 7.67, I: 9.52)

[P] C[C@H](N)COc1ccc2ncc(-c3cc4c(N5CCCCC5)nccc4o3)n2n1 [III-9]
[Q] CC(C)(C)[Si](C)(C)OC[C@H]1CCCN1c1nccc2oc(-c3cnc4ccc(OC[C@H]5CCC(=O)N5)nn34)cc12 [III-66]
Req: Lower value of pIC50 belongs to which: P or Q ? # answer = label of selected item
Resp: P
(P: 7.69, Q: 8.07)

[I] C[C@@H]1CN(c2nccc3oc(-c4cnc5ccc(OC[C@@H](C)N)nn45)cc23)CCO1 [III-121]
[II] CN(C)[C@@H]1CCN(c2nccc3oc(-c4cnc5ccc(O[C@H]6C[C@H](N)C6)nn45)cc23)C1 [III-98]
[III] C[C@H](N)COc1ccc2ncc(-c3cc4c(N5CCN(C(=O)OC(C)(C)C)CC5)nccc4o3)n2n1 [III-15]
[IV] CC(C)(C)OC(=O)N1CCN(c2nccc3oc(-c4cnc5ccc(OCCCS(C)(=O)=O)nn45)cc23)CC1 [III-49]
Req: With regard to pIC50, arrange the entries in ascending order, please. In your reply, arrange the labels in the requested order.
Resp: III, IV, I, II

[a] C[C@@H]1COCCN1c1nccc2oc(-c3cnc4ccc(OC[C@@H](C)N)nn34)cc12 [III-3]
[b] C[C@@H]1CN(c2nccc3oc(-c4cnc5ccc(O[C@H]6C[C@H](N)C6)nn45)cc23)C[C@H](C)O1 [III-104]
[c] CN1CCN(c2nccc3oc(-c4cnc5ccc(O[C@H]6C[C@@H](N)C6)nn45)cc23)CC1 [III-96]
Req: Arrange these 3 compounds in increasing order of pIC50. Your task in answering is to list the labels in the requested order.
Resp: b, a, c

[A] C[C@@H](N)COc1ccc2ncc(-c3cc4c(N5CCO[C@@H](C)C5)nccc4o3)n2n1 [III-6]
[B] CC1(C)CN(c2nccc3oc(-c4cnc5ccc(OC[C@H]6CCC(=O)N6)nn45)cc23)CCN1 [III-141]
Req: Among A and B , whose measured pIC50 is the smaller figure? Answer by quoting the chosen item's label.
Resp: A
(A: 8.06, B: 8.85)

[P] N[C@H]1C[C@H](Oc2ccc3ncc(-c4cc5c(N6CCNCC6)nccc5o4)n3n2)C1 [III-103]
[Q] CC1(C)CN(c2nccc3oc(-c4cnc5ccc(OC[C@@H]6CCC(=O)N6)nn45)cc23)CCO1 [III-132]
[R] C[C@H]1CN(c2nccc3oc(-c4cnc5ccc(O[C@H]6C[C@H](N)C6)nn45)cc23)CCO1 [III-110]
[S] C[C@@H]1CN(c2nccc3oc(-c4cnc5ccc(OCC(F)(F)F)nn45)cc23)CCN1 [III-127]
Req: Please give the order of these compounds when sorted by pIC50, largest value leading. // ordering of labels required in reply
Resp: Q, S, R, P
(Q: 8.60, S: 8.38, R: 7.98, P: 7.73)

[P] C[C@@H]1CN(c2nccc3oc(-c4cnc5ccc(OCCCS(C)(=O)=O)nn45)cc23)CCO1 [III-119]
[Q] CCN(CCO)c1nccc2oc(-c3cnc4ccc(OC[C@@H]5COCCN5)nn34)cc12 [III-40]
Req: Looking only at measured pIC50, which entry is lower, P or Q ? Record your answer as the label of the chosen record.
Resp: P
